- Test system: mRNA expression in cardiovascular tissues
- assay: Affymetrix GeneChip mRNA expression profiling of monkey tissues (iliac vein, pulmonary vein, aorta, carotid artery, heart) after two-week oral-gavage treatment
- assayContext: iliac vein; group average (Vioxx without A60055)
endpointLabel: PRKCBP1 (209049_s_at) mRNA expression, Avg fold changes vs control

*Q* What value of measured PRKCBP1 (209049_s_at) mRNA expression, Avg fold changes vs control is listed for Cc1ccc(-c2cc(C(F)(F)F)nn2-c2ccc(S(N)(=O)=O)cc2)cc1 [Celebrex] ?
*A* 1.2 fold

*Q* Please report the recorded PRKCBP1 (209049_s_at) mRNA expression, Avg fold changes vs control for O=C(O)Cc1ccccc1Nc1c(Cl)cccc1Cl [Voltaren] .
*A* 1.0 fold

*Q* Would you mind telling me what PRKCBP1 (209049_s_at) mRNA expression, Avg fold changes vs control value was observed for Cc1ccc(Nc2c(F)cccc2Cl)c(CC(=O)O)c1 [COX189, Lumiracoxib] ?
*A* 0.9 fold

*Q* What value of measured PRKCBP1 (209049_s_at) mRNA expression, Avg fold changes vs control is listed for CS(=O)(=O)c1ccc(C2=C(c3ccccc3)C(=O)OC2)cc1 [Vioxx®, rofecoxib] ?
*A* 1.0 fold

* * *

Kindly supply the reported TMPO (209753_s_at) mRNA expression, Avg fold changes vs control values for the records listed here.
- Tested on: mRNA expression in cardiovascular tissues
- assay: Affymetrix GeneChip mRNA expression profiling of monkey tissues (iliac vein, pulmonary vein, aorta, carotid artery, heart) after two-week oral-gavage treatment
- assayContext: iliac vein; group average (Vioxx without A60055)

*Q* Field: TMPO (209753_s_at) mRNA expression, Avg fold changes vs control (mRNA expression in cardiovascular tissues). Entry: Cc1ccc(Nc2c(F)cccc2Cl)c(CC(=O)O)c1 [COX189, Lumiracoxib]
*A* 0.9 fold

*Q* Give mRNA expression in cardiovascular tissues TMPO (209753_s_at) mRNA expression, Avg fold changes vs control for O=C(O)Cc1ccccc1Nc1c(Cl)cccc1Cl [Voltaren]
*A* 1.1 fold

*Q* Test system mRNA expression in cardiovascular tissues; read-out TMPO (209753_s_at) mRNA expression, Avg fold changes vs control; what value for Cc1ccc(-c2cc(C(F)(F)F)nn2-c2ccc(S(N)(=O)=O)cc2)cc1 [Celebrex] ?
*A* 0.9 fold

*Q* Find the measured TMPO (209753_s_at) mRNA expression, Avg fold changes vs control: item CS(=O)(=O)c1ccc(C2=C(c3ccccc3)C(=O)OC2)cc1 [Vioxx®, rofecoxib] , target or system mRNA expression in cardiovascular tissues.
*A* 0.8 fold

* * *

- Tested on: mRNA expression in cardiovascular tissues
- assay: Affymetrix GeneChip mRNA expression profiling of monkey tissues (iliac vein, pulmonary vein, aorta, carotid artery, heart) after two-week oral-gavage treatment
- assayContext: iliac vein; group average (Vioxx without A60055)
endpointLabel: TNFRSF21 (218856_at) mRNA expression, Avg fold changes vs control (fold)
Give the value in fold but do not write fold after it.

*Q* Tell me the measured TNFRSF21 (218856_at) mRNA expression, Avg fold changes vs control of CS(=O)(=O)c1ccc(C2=C(c3ccccc3)C(=O)OC2)cc1 [Vioxx®, rofecoxib] , please.
*A* 1.2

*Q* So what's the measured TNFRSF21 (218856_at) mRNA expression, Avg fold changes vs control for this one? Cc1ccc(-c2cc(C(F)(F)F)nn2-c2ccc(S(N)(=O)=O)cc2)cc1 [Celebrex]
*A* 1.5

*Q* Given O=C(O)Cc1ccccc1Nc1c(Cl)cccc1Cl [Voltaren] , state its recorded TNFRSF21 (218856_at) mRNA expression, Avg fold changes vs control.
*A* 1.2

*Q* May I ask what TNFRSF21 (218856_at) mRNA expression, Avg fold changes vs control has been recorded for Cc1ccc(Nc2c(F)cccc2Cl)c(CC(=O)O)c1 [COX189, Lumiracoxib] ?
*A* 1.1
